Assay: NCI Yeast Anticancer Drug Screen. Data for the bub3 strain (AID 167)
Details: S. cerevisiae bub3 mutant strain, at 50.0 µM (retest, dose inferred, filed as 5.0)
The panel holds about 79,000 compounds, 15% with a hit somewhere; the sample as a whole holds those more often. Activity calls are given as the source filed them. No stated cut-off is given here; in the data, active means growth inhibition above about 70%; inactive means the rest.
Reply using exactly one outcome from yes = active, no = inactive

• Oc1ccc(C(O)(c2ccccc2)c2ccccc2)c2ccccc12 = no
• COc1ccc(/C=N/NS(=O)(=O)c2ccc(C)cc2)cc1 = yes
• COc1cc(C(=O)[O][Sn]([c]2ccccc2)([c]2ccccc2)[c]2ccccc2)cc(OC)c1OC = yes
• O=C1c2c(Br)sc(Br)c2[C@@H](NC(=O)C(F)(F)F)C1Br (stereo not given in full) = yes

Field: next compound
Problem: Test call, this compound: N/C(=N\OC1(c2ccccc2)OC(=O)C(=O)/C1=C(/O)c1ccccc1)c1ccccc1 (stereo not given)
Solution: yes

Source of measurements: PubChem BioAssay (NCI)
